Exercise: state measured apparent KD of K4 kissing-loop reporter for each of the sequences provided.
Tested on: K4 kissing-loop RNA reporter;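 also: bound reporter read as fluorescence of individual clusters on recovered sequencing chips by microscopy, with normalized cluster intensities fitted with a binding model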
Assay: apparent KD of K4 kissing-loop reporter; higher = weaker reporter binding
Settings: Eterna round: R107; input ligand: none
Provide the reading as a plain figure in nM.

apparent KD of K4 kissing-loop reporter reported for this sequence UUUUAAAUAUCUGAUACCAGAGAAAAUAUAUGUAGUGAUGUUAUAUACAAAAUAAAUAAGCUCCCUUGGCAGCAGUAUUAAUUUU [AstrosExyTheB#1] : 808

apparent KD of K4 kissing-loop reporter reported for this sequence AGUAGAGCAUCAGAUACCAGACAGAACUGAUGGUAAGGAGUGAUGUUCCUUAAUCAGCUUGUCCCUUGGCAGCUGAUAAUAGUCA [#13 K4 Theophylline B Same State] : 475

apparent KD of K4 kissing-loop reporter reported for this sequence GUAUCGCUAGGAGGAUAUUUCAAUUUGACUCUUUGAGUUUUUACGGAGUGAUGUUCCGUUUUACGGAAAGAAGGCCUAGUGAUAC [FMN B 15] : 162

apparent KD of K4 kissing-loop reporter reported for this sequence UAUAUAGUGACGGCCGCCACUAUUGUGAUUUAAUUGUUAGAGUGAUGUUUUGUUGUUUGAUUUUGUAGGACCGGGUUAUAUGUUA [vnbbwzmullin] : 982

apparent KD of K4 kissing-loop reporter reported for this sequence CCAUCGCUAUUCGAUACCAGCUCCUUAGUGAUGUUAAGGUUUUACGCUCUGUAGGAGCGAAGCCCUUGGCAGCGAGUAGUGAUGG [#04 K4 Theophylline B Same State] : 1060

apparent KD of K4 kissing-loop reporter reported for this sequence CAUAAAAGGUGGAAGACGAAUCGGUGUCGCCGAGGACCGGUACGGCCGCCACUCGGUCAUCAAAUCCUUCCCGAGUGAUGUUCGA [theeternabot_sameState_KL_Trp_A_5] : 501

apparent KD of K4 kissing-loop reporter reported for this sequence CGUAGCAGAUGAAGGAGCGGCUACCUGUAUCAGGCAACUGCCUGAGUGAUGUUCAGGUAUAGCCAGGUAGGUCGCAUCUGCUACG [Arg B Ex t9b] : 214

apparent KD of K4 kissing-loop reporter reported for this sequence AUGCGUGAUGCUCAAAGAGUAUCACCCGAUACCAGUAUGGAAACAUACCCUUGGCAGCGGGUAACUGCCCAGUGAUGUUGGACGC [Theophylline A K4 10] : 242

apparent KD of K4 kissing-loop reporter reported for this sequence CUGCAAAAGUCGGCCGCCACUCCGGGCCCUAUAAAUGGGCGCAGUGAUGUUGCGGCUAGGCCUCUGAGGACCGGGACUUUGUAAC [Aratan] : 87

apparent KD of K4 kissing-loop reporter reported for this sequence "GCCGUAGAUUGAAGGAGCGGCUUCAUCAAAUCUCUUGCCCGCACCAGUGAUGUUGGUGUUAGCCAGGUAGGUCGCAAUCUACGGC" : 583

apparent KD of K4 kissing-loop reporter reported for this sequence UGUACCGAGUCAGGAUAUGGCGUCGAAAGACGAAUCCUAGUGAUGUUAGUGAUCUGCGAAAGCAGUCCAGAAGGGACUUGGUACU [FmnBS 26 U50] : 334

apparent KD of K4 kissing-loop reporter reported for this sequence CGGCGGAGUGAUGUUCUGCUCGCUCCGGAUACCAGCUUCGCCAGAGGCCCUUGGCAGCCGGGCGGCCCAGUGAUGUUGGGUUGCG [Same State Theophylline A GF 17] : 277

apparent KD of K4 kissing-loop reporter reported for this sequence AAUUUAUUAACUGAUACCAGACUUAAUUAAUUGUAAAUUACUAGUGAUGUUAGUGAUUCUGUCCCUUGGCAGCAGUAUUUAUUAA [JR_ExcTheophyB_Sub011] : 113

apparent KD of K4 kissing-loop reporter reported for this sequence UUUUUGGAGAAUUAUAGUGAUGUUAUGAAGGAGGAUAUCUGGAGAUGGAGAAGGCCUAGUGGCUCAGCCCUGGAGGGUGGGUGGG [ExFMNA.aB] : 705

apparent KD of K4 kissing-loop reporter reported for this sequence AAAGGAUCAGAGAGUGAUGUUCUCUAAUAACGAGGACCGGUACGGCCGCCACUCGAAGAUCCAAAAGUCCUACGAAAAGUAGGAC [Omei inspired 7] : 83.7

apparent KD of K4 kissing-loop reporter reported for this sequence CGCAGUGAUGUUGCUUAUAUUCUUGGUUAACGAGGACCGGUACGGCCGCCACUCGAUUUCUAUCUAUUCCAGUGUUAAUUUGAGU [JR_ExcTryptoA_Sub005] : 419

apparent KD of K4 kissing-loop reporter reported for this sequence GGUGCUGUCUGUGCCGCCCUCCUCGUCCCUCGAGGACCGGUACGGCCGCCACUCGAGUGAUGUUCGGGUAGCCCUCCCUGCCAGC [BDazzled - #21 Exc. Tryptophan A] : 548

apparent KD of K4 kissing-loop reporter reported for this sequence AUACGUUUCAGAGGAUAUCGGAGGAGAGUGAUGUUCUCCCAUAGCCCAGUGAUGUUGGAAGCUAUCCGAGAAGGCUGUGGGCGUA [Same State FMN B GF 15] : 186

apparent KD of K4 kissing-loop reporter reported for this sequence AUGCCUAUGACGGCCGCCACUGAGAGUCAGUGAUGUUGACUCGAUACAGCUGAUUAGCAGCUAAUCAGGACCGGGUCAUACACAU [Tryp B SS t3] : 244

apparent KD of K4 kissing-loop reporter reported for this sequence AAACGUUGGUGCGAUACCAGCUUGCGCGGAAAACGCGCUACUGGAGUGAUGUUCCUAAAUAGCCCUUGGCAGCGCACCGACGAAA [MAT - Same State Theophlline B - Mod of Eli - D9] : 155

apparent KD of K4 kissing-loop reporter reported for this sequence UCGGCAAAGUCGGCCGCCACUCCGGGCCCUAUAAAUGGGCGCAGUGAUGUUGCGGCUAGGCCUCUGAGGACCGGGACUUUGUAAA [Atordied] : 54.5

apparent KD of K4 kissing-loop reporter reported for this sequence AAAAUUAAGGCCGAAUAAACUUAUUUCAUACGAGGACCGGUACGGCCGCCACUCGAGUCAAGUGAUGUUUGACUAUCUAUUAUUA [JR_ExcTryptoA_Sub009] : 68.7

apparent KD of K4 kissing-loop reporter reported for this sequence CUCGUGGGUUUGAGAGGGCUUGUGGGAAGUAAGGAUAUUUAGGGAGGAAGAAGGUACUAUAGAAUAUAGUGAUGUUAUAUAUGGG [SSFMNA.Y] : 289

Attribution: the supplement of paper PMC9170038
